Value source: PubChem BioAssay (Tox21)

biological target: Peroxisome proliferator-activated receptor delta (Homo sapiens); experiment: qHTS assay to identify small molecule agonists of the peroxisome proliferator-activated receptor delta (PPARd) signaling pathway (AID 743212); settings: HEK293H PPARd-UAS-bla, beta-lactamase FRET ratio, 17 h; series mostly up to 62.6 µM;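 further: HEK293H cells with PPARd UAS beta-lactamase reporter GeneBLAzer system; on the % scale 0 is the no-effect control and ±100 the full control effect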
Records with an inconclusive call do not appear. Activity calls are given as the source filed them. The call rests on the fitted dose curve.

compound: O=P(O)(O)c1ccccc1
activation: inactive

compound: Cn1c(CCCC(=O)O)nc2cc(N(CCCl)CCCl)ccc21
activation: inactive

compound: CCOC(=O)COc1ccc(Cl)cc1Cl
activation: inactive

compound: C[C@H]1CCCC(=O)CCC/C=C/c2cc(O)cc(O)c2C(=O)O1
activation: inactive

compound: C=CCC1(C(C)CC)C(=O)NC(=O)NC1=O (stereo not drawn)
activation: inactive

compound: CC(C)(C)c1cc(O)ccc1O
activation: inactive

compound: CCC(CC)(CNC(=O)CCCO)c1cccc(OC)c1
activation: inactive

compound: N[C@@H]1C[C@H]1c1ccccc1
activation: inactive

---

Target: Cytochrome P450 1A2 (Homo sapiens) (UniProt P05177)
Sequence (P05177 whole entry, looked up): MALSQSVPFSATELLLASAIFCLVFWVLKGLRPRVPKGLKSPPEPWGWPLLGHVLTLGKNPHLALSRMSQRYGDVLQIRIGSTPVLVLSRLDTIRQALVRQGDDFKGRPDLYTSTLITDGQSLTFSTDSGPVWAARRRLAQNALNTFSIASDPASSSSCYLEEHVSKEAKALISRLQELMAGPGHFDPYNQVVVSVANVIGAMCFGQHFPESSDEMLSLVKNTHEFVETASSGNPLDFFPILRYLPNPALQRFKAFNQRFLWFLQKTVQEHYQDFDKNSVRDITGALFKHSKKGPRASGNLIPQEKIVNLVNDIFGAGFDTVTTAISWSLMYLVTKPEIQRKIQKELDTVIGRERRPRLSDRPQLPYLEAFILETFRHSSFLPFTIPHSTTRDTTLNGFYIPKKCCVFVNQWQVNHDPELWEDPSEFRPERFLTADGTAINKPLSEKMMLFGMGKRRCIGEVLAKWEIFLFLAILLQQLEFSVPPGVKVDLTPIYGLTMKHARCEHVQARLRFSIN
Assay: Cytochrome P450 Family 1 Subfamily A Member 2 (CYP1A2) small molecule antagonists: luciferase reporter qHTS assay (AID 1671199); further: nearly all actives have a fitted effect of over 50% in size
Details: P450-Glo CYP1A2 enzyme, luciferin luminescence, 1 h; series mostly up to 115 µM
From the text: National Center for Advancing Translational Sciences [NCATS] U.S. Environmental Protection Agency [EPA] National Institutes of Environmental Health Sciences [NIEHS] National Toxicology Program [NTP] U.S. Food and Drug Administration [FDA] Cytochrome P450 (CYP) enzymes are membrane-bound hemeproteins that play a key role in metabolism of drugs and xenobiotics. […] The luciferin products formed are detected with a luciferin detection reagent, and the amount of light produced is proportional to CYP activity. […]
Records with an inconclusive call do not appear. Activity calls are given as the source filed them. Calls come from the whole dose curve; as a rule, active = well fitted inhibition curve with a large enough effect in the repeat runs; inconclusive = weak or mixed curves; inactive = no such curve, though single readings can be large or run the other way.
Outcome codes: active, inactive

smiles_representation: O=P(O)(O)c1ccccc1
assigned_class: inactive
--
smiles_representation: CCOC(=O)COc1ccc(Cl)cc1Cl
assigned_class: active
--
smiles_representation: NCCOS(=O)(=O)O
assigned_class: inactive
--
smiles_representation: CCN(CC)CCOC(=O)C(O)(c1ccccc1)c1ccccc1
assigned_class: inactive
--
smiles_representation: CCN(CCO)CCn1c(Cc2ccccc2)nc2c1c(=O)n(C)c(=O)n2C
assigned_class: inactive
--
smiles_representation: ClCCN1CCCC1
assigned_class: inactive
--
smiles_representation: BrCCc1ccccc1
assigned_class: inactive
--
smiles_representation: O=c1[nH]oc2c1CCNC2
assigned_class: inactive

---

target: Estrogen receptor (Homo sapiens); experiment: qHTS assay to identify small molecule agonists of the estrogen receptor alpha (ER-alpha) signaling pathway using the BG1 cell line (AID 743079); settings: BG1Luc4E2 cells, ERE-luciferase agonist, 22 h; at 70.3 µM (top of the series); further: on the % scale 0 is the no-effect control and ±100 the full control effect; nearly all actives have a fitted effect of over 20% in size
Records with an inconclusive call do not appear.

compound: Cc1ccc(Cl)c(O)c1
activation / %: 9.43
--
compound: O=c1[nH]oc2c1CCNC2
activation / %: -5.36
--
compound: NC1(c2ccccc2)CCCCC1
activation / %: 0.0889
--
compound: N#CN=C1SCCN1Cc1ccc(Cl)nc1
activation / %: -2.73
--
compound: CCN(CCO)CCn1c(Cc2ccccc2)nc2c1c(=O)n(C)c(=O)n2C
activation / %: 6.52
--
compound: N[C@@H]1C[C@H]1c1ccccc1
activation / %: 1.81
--
compound: CCC1(c2ccccc2)CCC(=O)NC1=O (centres undefined)
activation / %: 2.78
--
compound: CC(Cc1ccccc1)NCCn1cnc2c1c(=O)n(C)c(=O)n2C (centres undefined)
activation / %: -17.2
--
compound: CCCN1CCC[C@@H]2Cc3[nH]ncc3C[C@H]21
activation / %: -4.44
--
compound: BrCc1ccc(Br)cc1
activation / %: -9.06
--
compound: CN=CNc1ccc(C)cc1C
activation / %: 15.7
--
compound: CNC(=O)Oc1ccccc1C(C)C
activation / %: -4.06
--
compound: CNC(=O)O/N=C(/CSC)C(C)(C)C
activation / %: -5.87
--
compound: COC(=O)c1ccccc1CS(=O)(=O)NC(=O)Nc1nc(OC)cc(OC)n1
activation / %: 1.94
